# Run description: WST-based cell viability assay in LNCaP cells
# Test parameters: human, LNCaP cells, WST assay viability relative to con = 100, LNcaP, 50uM; duplicates
Measured endpoint: viability at 50 µM (%)
Quick note: give the figure in %, leave out the unit.

                                   molecule  result_unit  value_measured
0  CC(C)NCC(O)COc1ccc(OCCc2ccccc2)c(OCCc2ccccc2)c1 (centres unmarked)            %             123

// moving on: another record for viability at 50 µM
Kindly indicate its recorded viability at 50 µM. Item: C=CC(C)(O)C(=O)N(C(=O)NCCOCCOCCNCC(O)COc1ccc(OCCc2ccccc2)c(OCCc2ccccc2)c1)c1cc(Cl)cc(Cl)c1 (centres unmarked) 1.83

----------
# Run description: WST-based cell viability assay in ACHN cells
# Test parameters: human; ACHN cells, WST-based viability assay; read-out: cytotoxicity IC50
Measured endpoint: pIC50
Bear in mind: pIC50 is minus log10 of a mol/L concentration; give just that figure.

Kindly indicate its recorded pIC50. Item: O[C@H](CNCCOCCOCCOc1ccc(-c2c(-c3ccccc3)nn3c(C(F)(F)F)cc(C(F)(F)F)nc23)cc1)COc1ccc(OCc2ccccc2)c(OCCCc2ccccc2)c1 5.48

----------
# Study target: tauP301L (Homo sapiens, UniProt P10636, P618L)
# Sequence (P10636 1-441 isoform P10636-8 P301L): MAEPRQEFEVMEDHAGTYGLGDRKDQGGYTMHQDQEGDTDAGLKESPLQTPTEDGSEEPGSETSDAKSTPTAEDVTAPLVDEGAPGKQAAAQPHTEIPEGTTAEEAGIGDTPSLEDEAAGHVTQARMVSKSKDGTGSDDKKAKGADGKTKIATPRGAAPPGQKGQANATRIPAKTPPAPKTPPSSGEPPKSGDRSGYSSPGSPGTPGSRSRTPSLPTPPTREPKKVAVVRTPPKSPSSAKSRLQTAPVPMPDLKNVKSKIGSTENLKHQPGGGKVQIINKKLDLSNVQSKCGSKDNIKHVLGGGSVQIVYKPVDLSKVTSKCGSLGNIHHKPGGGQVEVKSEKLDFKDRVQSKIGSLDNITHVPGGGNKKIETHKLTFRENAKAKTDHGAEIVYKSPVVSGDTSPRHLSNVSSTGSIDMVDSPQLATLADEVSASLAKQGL
# Run description: WB degradation of tauP301L in SH-SY5Y-tauP301L cells
# Type: cell-based
# Test parameters: densitometry, dosage degradation; SH-SY5Y-Tau-TiFC; 1 uM; average of N=3
# Procedure: Adherent cells were washed with phosphate-buffered saline (PBS) and cell pellets were lysed in SDS-based sample buffer (277.8 mM Tris-HCI, pH 6.8, 4.4% LDS, 44.4% (v/v) glycerol) containing beta-mercaptoethanol. Alternatively, cell pellets or protein supernatants were lysed in 5X Laemmli sample buffer. […] Densitometry of developed bands was measured and analyzed with ImageJ (NIH, Bethesda).
Each entry below lists one item and its recorded Tau normalized to GAPDH and control, AVG % value.
Please reply with the bare figure in % and do not write the unit itself.

In [3]: df
Out[3]:
                                   molecule  result_unit  value_measured
0                         O=C(O)CCCc1ccccc1            %         84.0643
1  Fc1ccc(COc2cccc(CNCCOCCOCCNc3cccc(-c4cc(-c5ccc6c(c5)OCO6)n[nH]4)c3)c2)cc1            %         22.4452

State its Tau normalized to GAPDH and control, AVG %: O=C(CCCc1ccccc1)NCCOCCOCCOCCNCc1ccc(OCc2ccccc2)c(OCc2ccccc2)c1 30.8722

Provide Tau normalized to GAPDH and control, AVG % value for the following molecule: Brc1cccc(-c2cc(-c3ccc4c(c3)OCO4)[nH]n2)c1 [Anle138b, reference compound] 69.922

----------
# Run description: WST-based cell viability assay in ACHN cells
# Test parameters: human, ACHN cells, ACHN, 10uM; duplicates; read-out: WST assay viability relative to con = 100
Measured endpoint: viability at 10 µM (%)
Number in %, nothing else.

Look up and state reported viability at 10 µM for O[C@H](CNCCOCCOCCOc1ccc(-c2c(-c3ccccc3)nn3c(C(F)(F)F)cc(C(F)(F)F)nc23)cc1)COc1ccc(OCc2ccccc2)c(OCCCc2ccccc2)c1 2.13

Name the recorded viability at 10 µM of the compound listed here: CC(C)NCC(O)COc1ccc(OCc2ccccc2)c(OCCCc2ccccc2)c1 (centres unmarked) 101
